Tested on: NCI-H522 lung
Test: NCI-60 one-dose screen, 48 h (100 = growth as untreated, 0 = no growth, -100 = all killed)
Details: 10 µM unless noted
The panel holds about 83,000 compounds, 20% with a hit somewhere; the sample as a whole holds those more often. Activity calls are given as the source filed them. The calls were made as follows: active = growth percent below 10; inactive = the rest.
The molecules listed here are annotated with their growth.

The molecule "CCOC(=O)CC[C@H](NC(=O)c1ccc(N(C)Cc2cnc3nc(N)nc(N)c3n2)c2ccccc12)C(=O)OCC" on NCI-H522 lung: growth was 22.4% (inactive)

###

Test system: EKVX NSCLC
Assay: NCI-60 one-dose screen, 48 h
Conditions: 10 µM unless noted
The panel holds about 83,000 compounds, 20% with a hit somewhere; the sample as a whole holds those more often. Calls of active or inactive are those of the source. Rule for the calls: active = growth percent below 10; inactive = the rest.
// one of active, inactive, no free text

compound | answerLabel
COc1ccc(/C=C2\CN(C(=O)C(Cl)Cl)C/C(=C\c3ccc(OC)c(OC)c3)C2=O)cc1OC | active
S=c1ccnc[nH]1 | inactive
CCN1C(=O)N(CC)C2C1NN=c1s/c(=C\c3ccc(OC)cc3)c(=O)n12 (stereo unspecified) | inactive

## Task Could you please tell me the result logged for CCOC(=O)C(CCN(C)C)c1ccccc1 (stereo unspecified) in this assay?
## Result inactive

## Task Could you please tell me the result logged for "c1ccc(-c2c(-c3ccccc3)[n+](Cc3ccc4ccccc4c3)cn2Cc2ccc3ccccc3c2)cc1" in this assay?
## Result active

## Task Could you please tell me the result logged for "O=C(/C=C/c1ccccc1)c1cccc2ccccc12" in this assay?
## Result inactive

## Task Could you please tell me the result logged for "O=C1/C(=C/c2cccc(Br)c2)COc2ccc(O)cc21" in this assay?
## Result inactive

## Task Could you please tell me the result logged for "Cc1ccc(NC(=O)c2cc3ccccc3cc2O)c(C)c1" in this assay?
## Result inactive

###

Tested on: EKVX NSCLC
Assay: NCI-60 one-dose screen, 48 h (100 = growth as untreated, 0 = no growth, -100 = all killed)
Details: 10 µM unless noted
This is part of a sample that, as a whole, favours compounds with a hit. Of some 83,000 tested, about 20% had one in any assay.
parameterMeasured: growth (%)
Enter your answer as a number in %; do not include the unit.

Guide cases for growth, answers given:
compound | parameterMeasured | readoutNumber
CCOc1ncc([N+](=O)[O-])c(OCC)n1 | growth | 122
O=c1oc2c(cc1-c1ccccc1)c[n+]([O-])c1ccccc21 | growth | 98.1
CNCCCNc1nc2ccccc2c2c(=O)c3cc(Cl)ccc3sc12 | growth | 76.7

The compound "COCC(=O)Oc1cc(-c2ccc(C)cc2C)c(OC(=O)COC)c(-c2ccc(C)cc2C)c1" on EKVX NSCLC: growth was 57.1

The compound CN1C(=O)N2CN3CCCN(C3)CN3C(=S)NC1C23 (stereo unspecified) on EKVX NSCLC: growth was 104

The compound "O=C(O)c1cn(C2CC2)c2cc(N3CCN(C(=O)N/N=C/c4cccc5ccccc45)CC3)c(F)cc2c1=O" on EKVX NSCLC: growth was 102

###

System: NCI-H522 lung
Test: NCI-60 one-dose screen, 48 h
Settings: 10 µM unless noted
About 83,000 compounds went through this panel and 20% of them were active in at least one assay; those are over-represented in the sample as a whole. Activity calls are given as the source filed them. The calls were made as follows: active = growth percent below 10; inactive = the rest.
// one of 1 (yes) (active), 0 (no) (inactive), no free text

Reference set, count: 3
molecule | answerLabel
Cc1ccc(-c2csc(NC(=O)CSc3nc(N)cc(N)n3)n2)cc1 | 0 (no)
CC1(/C=C/c2ccc(-c3ccccc3)cc2)CCn2cnc3ncnc(c32)N1O (stereo not given) | 0 (no)
c1cc(OCCN2CCCCC2)ccc1CNc1ccc2nc(CCC3CCCCC3)[nH]c2c1 | 0 (no)

## Task Could you please tell me the result logged for CC12OC(CC(O)C1O)n1c3ccccc3c3c4c(c5c6ccccc6n2c5c31)C(=O)N(CCN1CCCC1)C4=O (stereo not given) in this assay?
## Result 1 (yes)

## Task Could you please tell me the result logged for "O=C(Cc1ccc(/C=C/C(=O)c2ncc[nH]2)cc1)Nc1cc(F)c(F)c(F)c1" in this assay?
## Result 0 (no)

Where do these numbers come from? They come from PubChem BioAssay (NCI).
